system: Fibrinogen (Alexa647-labelled); assay: fibrinogen binders on compound microarrays, profiling panel, artefact control for SMM control-protein annotation, biochemical, small-molecule microarray, 635/667 nm fluorescence (AID 1131); conditions: fibrinogen-A647 binding fluorescence, higher = more signal;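 further: z-score merges 667 nm fluorescence with per-spot signal-to-noise over triplicate slides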

{"columns": ["compound", "system-tested", "composite z-score"],
 "data": [
  ["CC(C)=NOC[C@@H](O)[C@H]1O[C@@H]2OC(C)(C)O[C@@H]2[C@H]1O", "Fibrinogen (Alexa647-labelled)", 0.0104],
  ["CC(CCN1CCCc2nc(C)c(C)cc21)=NO[C@H](C)c1cn([C@@H]2COC[C@H]2O)nn1", "Fibrinogen (Alexa647-labelled)", 0.704],
  ["COC(=O)[C@@H]1CC[C@H](C)[C@@H](c2ccc(C)cc2)N1C(=O)c1ccc(C=NO[C@@H](C)c2cc(-c3c(C)cc(C)cc3C)no2)cc1", "Fibrinogen (Alexa647-labelled)", 0.602],
  ["C[C@@H]1CC[C@H]2C(=O)OC(Cc3ccccc3)CN2[C@H]1c1ccc(Br)cc1 (stereo not given in full)", "Fibrinogen (Alexa647-labelled)", 0.853],
  ["CCOC(=O)CCN1C(=O)[C@H]2[C@H]3[C@H](O)[C@H](O)CC(=NNC(=O)OCC)[C@H]3CC[C@H]2C1=O", "Fibrinogen (Alexa647-labelled)", -1.05],
  ["CCOC(=O)[C@H](Cc1ccccc1)NC(=O)CCC1CC(OC(=O)NCc2ccc3c(c2)OCO3)CC2(CCCC(COC(=O)NCCOc3ccccc3)O2)O1 (stereo not given in full)", "Fibrinogen (Alexa647-labelled)", 0.96],
  ["COc1ccc(COC(=O)NN=C2C[C@@H](O)[C@@H](O)[C@@H]3[C@@H]4C(=O)N(c5cccc(Oc6ccccc6)c5)C(=O)[C@@H]4CC[C@H]23)cc1", "Fibrinogen (Alexa647-labelled)", 0.744],
  ["COc1ccc(O[C@H]2C=C[C@@H](c3ccccc3)O[C@@H]2CON=C2c3cc(OC)ccc3O[C@H](c3cccc(OC)c3)[C@H]2O)cc1", "Fibrinogen (Alexa647-labelled)", -0.413],
  ["CC(=O)OC[C@H]1O[C@H](CC=NO[C@@H](C)c2cn([C@H](CO)Cc3ccccc3)nn2)C=C[C@@H]1OC(C)=O", "Fibrinogen (Alexa647-labelled)", 0.827],
  ["COC(=O)CC=C[C@@H](C)[C@@H](C=NOC[C@@H](C)[C@H](OCc1ccccc1)C(C)C)OC", "Fibrinogen (Alexa647-labelled)", -0.211],
  ["CC(=O)OC[C@H]1O[C@@H](ON=C(C)CCC(=O)OC[C@H]2O[C@H](C#Cc3ccccc3)C=C[C@@H]2Oc2ccc(C)cc2)[C@H](OC(C)=O)[C@@H](OC(C)=O)[C@@H]1OC(C)=O", "Fibrinogen (Alexa647-labelled)", 0.705],
  ["CO[C@H]1COC(=O)CC=C[C@H](C)[C@H](OC)COC(=O)[C@@H](C)NC(=O)CC=C[C@@H]1C", "Fibrinogen (Alexa647-labelled)", -2.18],
  ["CON=C[C@@H](OC)[C@H](C)C=CCC(=O)OC", "Fibrinogen (Alexa647-labelled)", -1.5],
  ["CC(=O)OC[C@H]1O[C@H](C#CCC2CCCCC2)C=C[C@@H]1OC(C)=O", "Fibrinogen (Alexa647-labelled)", 0.672],
  ["CC(C)=CCCC(C)=CCON=C1C[C@@H](O)[C@@H](O)[C@@H]2[C@@H]3C(=O)N([C@@H](C)c4ccccc4)C(=O)[C@@H]3CC[C@@H]12", "Fibrinogen (Alexa647-labelled)", 0.297]
]}

All values here come from PubChem BioAssay.
